# Tested on: rodent lifetime carcinogenesis bioassay, tumor incidence TD50
# method notes: carcinogenic potency in animals, long-term in vivo studies, CPDB compilation (AID 1745844)
# measurement parameters: rat; strain Fischer 344; females; by gavage; site: tongue; lesion: squamous-cell papilloma; dosed 103 weeks; study length 104 weeks
reported metric: TD50

For `c1ccc2occc2c1` the compound record lists TD50 as 574 mg/kg/day

====

# System: rodent lifetime carcinogenesis bioassay, tumor incidence TD50
# method notes: carcinogenic potency in animals, long-term in vivo studies, CPDB compilation (AID 1745844)
# measurement parameters: mouse; strain BALB/c; males; i.p.; site: lung; lesion: adenoma; dosed 50 weeks; study length 67 weeks
reported metric: TD50

For `Nc1ncn([C@@H]2O[C@H](CO)[C@@H](O)[C@H]2O)c(=O)n1` the compound record lists TD50 as 0.121 mg/kg/day

====

# Tested on: rodent lifetime carcinogenesis bioassay, tumor incidence TD50
# method notes: carcinogenic potency in animals, long-term in vivo studies, CPDB compilation (AID 1745844)
# measurement parameters: rat; strain MRC-Wistar; males; by gavage; site: lung; lesion: one or several types; types not named; dosed 104 weeks; study length 104 weeks
reported metric: TD50

For `CC(=O)CN(CC(C)=O)N=O` the molecule record lists TD50 as 1.92 mg/kg/day

====

# Tested on: rodent lifetime carcinogenesis bioassay, tumor incidence TD50
# method notes: carcinogenic potency in animals, long-term in vivo studies, CPDB compilation (AID 1745844)
# measurement parameters: rat; strain Osborne-Mendel; females; in feed; site: adrenal gland; lesion: cortical adenoma + cortical carcinoma; dosed 90 weeks; study length 109 weeks
Calls of active or inactive are those of the source. No rule for the calls is given here.
reported metric: TD50

For `ClC1=C(Cl)[C@]2(Cl)[C@@H]3[C@@H]4C[C@@H]([C@H]5O[C@@H]45)[C@@H]3[C@@]1(Cl)C2(Cl)Cl` the molecule record lists TD50 as 4.42 mg/kg/day (inactive)

====

# Tested on: rodent lifetime carcinogenesis bioassay, tumor incidence TD50
# method notes: carcinogenic potency in animals, long-term in vivo studies, CPDB compilation (AID 1745844)
# measurement parameters: rat; strain Sprague-Dawley; males; i.p.; site: all sites; lesion: leukemia + lymphoma; dosed 32 weeks; study length 79 weeks
reported metric: TD50

For `S=P(N1CC1)(N1CC1)N1CC1` the compound record lists TD50 as 0.224 mg/kg/day

====

# System: rodent lifetime carcinogenesis bioassay, tumor incidence TD50
# method notes: carcinogenic potency in animals, long-term in vivo studies, CPDB compilation (AID 1745844)
# measurement parameters: rat; strain Fischer 344; males; in drinking water; site: nasal cavity; lesion: papilloma; dosed 36 weeks; study length 104 weeks
reported metric: TD50 (mg/kg/day)
Give the value in mg/kg/day but do not write mg/kg/day after it.

For O=NN1CCCC1c1ccc[n+]([O-])c1 (stereo unspecified) the molecule record lists TD50 as 2.64

====

# Test system: rodent lifetime carcinogenesis bioassay, tumor incidence TD50
# method notes: carcinogenic potency in animals, long-term in vivo studies, CPDB compilation (AID 1745844)
# measurement parameters: rat; strain Sprague-Dawley; males; by gavage; site: all sites; lesion: lymphoma and leukemia, combined; dosed 104 weeks; study length 141 weeks
reported metric: TD50 (mg/kg/day)
Give the value in mg/kg/day but do not write mg/kg/day after it.

For `Cc1cccc(C)c1` the compound record lists TD50 as 4170

====

# System: rodent lifetime carcinogenesis bioassay, tumor incidence TD50
# method notes: carcinogenic potency in animals, long-term in vivo studies, CPDB compilation (AID 1745844)
# measurement parameters: mouse; strain CDF1; males; in feed; site: blood vessels; lesion: hemangioendothelioma; dosed 57 weeks; study length 57 weeks
reported metric: TD50 (mg/kg/day)
Give the value in mg/kg/day but do not write mg/kg/day after it.

For `Cc1cccn2c1nc1ccc(N)nc12` the compound record lists TD50 as 98.7

====

# Test system: rodent lifetime carcinogenesis bioassay, tumor incidence TD50
# method notes: carcinogenic potency in animals, long-term in vivo studies, CPDB compilation (AID 1745844)
# measurement parameters: hamster; strain Syrian Golden; females; in feed; site: any site (literature study); lesion: several types; types named in the paper; dosed 78 weeks; study length 78 weeks
The source made the active and inactive calls. How the calls were made is not given here.
reported metric: TD50

For `CC(=O)[O-].CC(=O)[O-].CCC(=O)c1ccc(F)c([C@@H]2C[C@@H]2NC(=O)Nc2ccc(C#N)cn2)c1O.[Zn+2]` the compound record lists TD50 as 177000 mg/kg/day (inactive)

====

# Test system: rodent lifetime carcinogenesis bioassay, tumor incidence TD50
# method notes: carcinogenic potency in animals, long-term in vivo studies, CPDB compilation (AID 1745844)
# measurement parameters: rat; strain Fischer 344; males; in drinking water; site: upper gastrointestinal tract; lesion: several types; types named in the paper; dosed 50 weeks; study length 125 weeks
reported metric: TD50

For `O=NN1CCCCCCC1` the molecule record lists TD50 as 0.0571 mg/kg/day

====

# Tested on: rodent lifetime carcinogenesis bioassay, tumor incidence TD50
# method notes: carcinogenic potency in animals, long-term in vivo studies, CPDB compilation (AID 1745844)
# measurement parameters: rat; strain Sprague-Dawley; females; in feed; site: skin; lesion: squamous-cell carcinoma; dosed 51 weeks; study length 52 weeks
reported metric: TD50

For `CCN(Cc1cccc(S(=O)(=O)[O-])c1)c1ccc(C(=C2C=CC(=[N+](C)C)C=C2)c2ccc(N(CC)Cc3cccc(S(=O)(=O)O)c3)cc2)cc1` the compound record lists TD50 as 1100 mg/kg/day

====

# System: rodent lifetime carcinogenesis bioassay, tumor incidence TD50
# method notes: carcinogenic potency in animals, long-term in vivo studies, CPDB compilation (AID 1745844)
# measurement parameters: rat; strain Fischer 344; females; in drinking water; site: liver; lesion: neoplastic nodule; dosed 104 weeks; study length 104 weeks
Calls of active or inactive are those of the source. How the calls were made is not given here.
reported metric: TD50

For `ClCCl` the molecule record lists TD50 as 2340 mg/kg/day (inactive)

====

# Test system: rodent lifetime carcinogenesis bioassay, tumor incidence TD50
# method notes: carcinogenic potency in animals, long-term in vivo studies, CPDB compilation (AID 1745844)
# measurement parameters: rat; strain Buffalo; females; in feed; site: liver; lesion: hepatoma; dosed 86 weeks; study length 86 weeks
reported metric: TD50

For `CC(=O)Nc1ccc2c(c1)C(=O)c1ccccc1-2` the molecule record lists TD50 as 102 mg/kg/day

====

# Tested on: rodent lifetime carcinogenesis bioassay, tumor incidence TD50
# method notes: carcinogenic potency in animals, long-term in vivo studies, CPDB compilation (AID 1745844)
# measurement parameters: hamster; strain Syrian Golden; females; in drinking water; site: liver; lesion: hepatoma; dosed 67 weeks; study length 67 weeks
reported metric: TD50 (mg/kg/day)
Give the value in mg/kg/day but do not write mg/kg/day after it.

Given the molecule `CNNC` and test system rodent lifetime carcinogenesis bioassay, tumor incidence TD50, the measured TD50 is 1.4

====

# Tested on: rodent lifetime carcinogenesis bioassay, tumor incidence TD50
# method notes: carcinogenic potency in animals, long-term in vivo studies, CPDB compilation (AID 1745844)
# measurement parameters: rat; strain Wistar; males; in drinking water; site: pancreatic islets; lesion: several types; types named in the paper; dosed 104 weeks; study length 104 weeks
reported metric: TD50 (mg/kg/day)
Give the value in mg/kg/day but do not write mg/kg/day after it.

For O=C1OC(O)C(C(Cl)Cl)=C1Cl (stereo unspecified) the compound record lists TD50 as 16.6

====

# System: rodent lifetime carcinogenesis bioassay, tumor incidence TD50
# method notes: carcinogenic potency in animals, long-term in vivo studies, CPDB compilation (AID 1745844)
# measurement parameters: mouse; strain B6C3F1; females; in drinking water; site: liver; lesion: adenoma; dosed 78 weeks; study length 104 weeks
reported metric: TD50 (mg/kg/day)
Give the value in mg/kg/day but do not write mg/kg/day after it.

Given the compound `[O-][Br+2]([O-])O` and test system rodent lifetime carcinogenesis bioassay, tumor incidence TD50, the measured TD50 is 1180

====

Form field: TD50 (one value per entry).
# Test system: rodent lifetime carcinogenesis bioassay, tumor incidence TD50
# method notes: carcinogenic potency in animals, long-term in vivo studies, CPDB compilation (AID 1745844)
# measurement parameters: mouse; strain B6C3F1; males; in feed; site: liver; lesion: hepatocellular adenoma + hepatocellular carcinoma; dosed 103 weeks; study length 104 weeks

Here is how some compounds turned out for TD50.
{"compound": "C=CCc1ccc(O)c(OC)c1", "TD50": "451 mg/kg/day"}
{"compound": "COc1ccccc1[N+](=O)[O-]", "TD50": "208 mg/kg/day"}

For `Nc1c(Br)cc(Br)c2c1C(=O)c1ccccc1C2=O` the compound record lists TD50 as 467 mg/kg/day

For CCCCC(CC)COC(=O)CCCCC(=O)OCC(CC)CCCC (stereo unspecified) the compound record lists TD50 as 5330 mg/kg/day

For `N=C1C=CC(=C(c2ccc(N)cc2)c2ccc(N)cc2)C=C1` the compound record lists TD50 as 116 mg/kg/day

For `CNc1ccc(N(CCO)CCO)cc1[N+](=O)[O-]` the compound record lists TD50 as 259 mg/kg/day
